- assaySummary: qHTS profiling of the MIPE4 collection as inhibitors of Plasmodium falciparum (DD2) proliferation (AID 743345)
- experimentalParameters: P. falciparum Dd2 in erythrocytes, SYBR Green DNA, 72 h; at 28.5 µM (top of the series) unless noted
Hi! Could you tag entries with parasite growth remaining, % of DMSO control (lower = more inhibition) below 40% as Fulfilled, and those at or above as Not fulfilled? Much appreciated.

Below are worked cases with known answers.
- molecule: "N#Cc1ccc(COC[C@H]2O[C@@H](n3c(NCc4ccc(Cl)c(Cl)c4)nc4c(N)ncnc43)[C@@H](O)[C@@H]2O)cc1"
  groupLabel: "Not fulfilled"
- molecule: "CC(C)n1cnc2c(NCCc3ccc(O)cc3)nc(-c3csc4ccccc34)nc21"
  groupLabel: "Fulfilled"
- molecule: "O=C(NCc1ccccc1)[C@H](Cc1ccccc1)NC(=O)[C@@H]1O[C@@H]1C(=O)NCCc1ccc(O)cc1"
  groupLabel: "Not fulfilled"
- molecule: "Cc1cn([C@@H]2O[C@H](CO)[C@@H](O)[C@H]2F)c(=O)[nH]c1=O"
  groupLabel: "Not fulfilled"
- molecule: "Cc1cnc(NC(=O)Nc2cc(Br)c(C)cc2OC[C@@H]2CNCCO2)cn1"
  groupLabel: "Fulfilled"

// query Is the reported parasite growth remaining, % of DMSO control (lower = more inhibition) for CN(N=O)C(=O)N[C@H]1C(O)OC(CO)[C@@H](O)[C@H]1O (stereo partly drawn) strictly below 40%?
// result Not fulfilled

// query Is the reported parasite growth remaining, % of DMSO control (lower = more inhibition) for `CS[C@H]1SC[C@@H]2C(=O)N(C)[C@H](C(C)C)C(=O)OC[C@H](NC(=O)c3cnc4ccccc4n3)C(=O)N[C@H](C)C(=O)N(C)[C@@H]1C(=O)N(C)[C@H](C(C)C)C(=O)OC[C@H](NC(=O)c1cnc3ccccc3n1)C(=O)N[C@H](C)C(=O)N2C` strictly below 40%?
// result Fulfilled

// query Is the reported parasite growth remaining, % of DMSO control (lower = more inhibition) for `CC(C)(N)c1ccc(-c2nc3ccccc3nc2-c2ccccc2)cc1` strictly below 40%?
// result Fulfilled

---

- assaySummary: qHTS of pediatric cancer cell lines to identify multiple opportunities for drug repurposing: Confirmatory screen for SJ-GBM2 cells (AID 1347116);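 further: 48 hour compound exposure; nearly all actives have a fitted effect of over 60% in size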
- experimentalParameters: SJ-GBM2 glioblastoma cells, viability; series mostly up to 45.9 µM
Records with an inconclusive call do not appear. Active and inactive are the calls of the source. Calls come from the whole dose curve; as a rule, active = well fitted cell-killing curve with a large enough effect; inconclusive = small, poorly fitted or top-dose-only effect, or effect the other way; inactive = no such curve, though single readings can be large or run the other way.
Bench note: report the call from active, inactive

Below are worked cases with known answers.
- molecule: "CCN(CC)Cc1ccc2cc(COC(=O)Nc3ccc(C(=O)NO)cc3)ccc2c1"
  groupLabel: "inactive"
- molecule: "CS[C@H]1SC[C@@H]2C(=O)N(C)[C@H](C(C)C)C(=O)OC[C@H](NC(=O)c3cnc4ccccc4n3)C(=O)N[C@H](C)C(=O)N(C)[C@@H]1C(=O)N(C)[C@H](C(C)C)C(=O)OC[C@H](NC(=O)c1cnc3ccccc3n1)C(=O)N[C@H](C)C(=O)N2C"
  groupLabel: "inactive"
- molecule: "COc1cccc2c1C(=O)c1c(O)c3c(c(O)c1C2=O)C[C@@](O)(C(=O)CO)C[C@H]3O[C@H]1C[C@H](N)[C@H](O)[C@H](C)O1"
  groupLabel: "active"

// query For this molecule, state the assay outcome: `O=S(=O)(O)CCSSCCS(=O)(=O)O`
// result inactive

// query For this molecule, state the assay outcome: `CC(=O)[C@]1(O)Cc2c(O)c3c(c(O)c2[C@@H](O[C@H]2C[C@H](N)[C@@H](O)[C@H](C)O2)C1)C(=O)c1ccccc1C3=O`
// result active

// query For this molecule, state the assay outcome: `C[C@@H](Oc1ccc2[nH]nc(C=Cc3cnn(CCO)c3)c2c1)c1c(Cl)cncc1Cl`
// result active

// query For this molecule, state the assay outcome: `C=Cc1c(C)c2cc3nc(cc4[nH]c(cc5nc(cc1[nH]2)C(C)=C5CCC(=O)O)c(CCC(=O)OC)c4C)[C@@]1(C)C3=CC=C(C(=O)OC)[C@H]1C(=O)OC`
// result inactive

Reference for the values: PubChem BioAssay (NCATS)
